Biological target: O-acyltransferase (Oryctolagus cuniculus, UniProt G1SFD9)
readout.type: IC50 (µM)

(P) CCCCCCCCCCc1cc(NC(=O)Nc2c(C(C)C)cccc2C(C)C)on1
(Q) CCCCCCCCCc1nnc(NC(=O)Nc2c(C(C)C)cccc2C(C)C)s1
(R) CCCCCCCCCCCCCSc1nnc(NC(=O)Nc2c(C(C)C)cccc2C(C)C)n1C(C)=O
(S) CCCCCCCCCCCCN1NN=C(NC(=O)Nc2c(OC)cc(OC)cc2OC)N1
Query block: Order by IC50, ascending. Your task in answering is to list the labels in the requested order.
Result block: P, S, Q, R
(P: 0.029 µM, S: 0.066 µM, Q: 0.15 µM, R: 0.68 µM)

(A) CC(C)c1cccc(C(C)C)c1NC(=O)Nc1nnn(CCCCCCCCCCCO)n1
(B) CCCCCCCCCCCc1csc(NC(=O)Nc2c(C(C)C)cccc2C(C)C)n1
Query block: Returns: the label, A or B , whose recorded IC50 is the lower number. Your answer should be the label of the entry you select.
Result block: A

(a) CCCCCCCCCN1NN=C(NC(=O)Nc2c(C(C)C)cccc2C(C)C)N1
(b) CCCCCCCCCCCCn1cnc(NC(=O)Nc2c(C(C)C)cccc2C(C)C)n1
Query block: Returns: the label, a or b , whose recorded IC50 is the lower number. Your answer should be the label of the entry you select.
Result block: a

---

Molecular target: UniProtKB O70536
Sequence (O70536 whole entry): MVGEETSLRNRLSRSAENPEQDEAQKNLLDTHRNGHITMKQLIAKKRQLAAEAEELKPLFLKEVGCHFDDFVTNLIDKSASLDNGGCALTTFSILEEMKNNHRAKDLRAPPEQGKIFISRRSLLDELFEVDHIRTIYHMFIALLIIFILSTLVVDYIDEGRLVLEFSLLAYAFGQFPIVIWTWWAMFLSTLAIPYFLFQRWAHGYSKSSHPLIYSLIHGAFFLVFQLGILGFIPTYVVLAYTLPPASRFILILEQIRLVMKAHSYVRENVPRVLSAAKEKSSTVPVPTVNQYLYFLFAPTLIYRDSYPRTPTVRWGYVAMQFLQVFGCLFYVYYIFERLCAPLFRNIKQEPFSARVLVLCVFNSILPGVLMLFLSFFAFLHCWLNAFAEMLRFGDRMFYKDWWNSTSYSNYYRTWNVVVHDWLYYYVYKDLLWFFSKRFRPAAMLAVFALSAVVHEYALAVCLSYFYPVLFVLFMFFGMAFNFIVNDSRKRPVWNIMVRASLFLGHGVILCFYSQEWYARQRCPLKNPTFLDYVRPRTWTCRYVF
Assay: Percent change in plasma total cholesterol in an acute cholesterol-fed rat model of hypercholesterolemia, dose at 30 mg/kg
Format: functional, organism-based
Design: dose 30 mg/kg
readout.type: Delta TC (%)

Check out these entries, answers already filled in.
So for `CCCCCCCCCCc1cc(NC(=O)Nc2c(C(C)C)cccc2C(C)C)on1` , the logged Delta TC turned out to be -69

So for `CCCCN1NN=C(NC(=O)Nc2c(C(C)C)cccc2C(C)C)N1` , the logged Delta TC turned out to be -26

(P) CCCCCCCCCCCCC[S+]([O-])c1n[nH]c(NC(=O)Nc2c(C(C)C)cccc2C(C)C)n1 (stereo not given)
(Q) CCCCCCCCCCc1sc(NC(=O)Nc2c(C(C)C)cccc2C(C)C)nc1C
(R) CCCCCCCCCCCCN1NN=C(CNC(=O)Nc2c(C(C)C)cccc2C(C)C)N1
Query block: List by increasing Delta TC. Your task in answering is to list the labels in the requested order.
Result block: R, Q, P
(R: -58%, Q: -33%, P: -6%)

---

Biological target: O-acyltransferase (Oryctolagus cuniculus, UniProt G1SFD9)
readout.type: IC50 (nM)

Check out these entries, answers already filled in.
So for `CCCCCCCCCCCCCCc1cc(NC(=O)Nc2c(C(C)C)cccc2C(C)C)on1` , the logged IC50 turned out to be 28

So for `CCCCCCCCCCCCCCCCN1NN=C(NC(=O)Nc2c(C(C)C)cccc2C(C)C)N1` , the logged IC50 turned out to be 57

(a) CC(C)=CCC/C(C)=C/Cn1nnc(NC(=O)Nc2c(C(C)C)cccc2C(C)C)n1
(b) CCCCCCCCCCCCC[S+]([O-])c1n[nH]c(NC(=O)Nc2c(C(C)C)cccc2C(C)C)n1 (stereo not given)
(c) COC(=O)CCCCCCCCCCN1NN=C(NC(=O)Nc2c(C(C)C)cccc2C(C)C)N1
Query block: Hey, quick one: sort these by IC50, largest value first please. Your task in answering is to list the labels in the requested order.
Result block: c, b, a

All values here come from ChEMBL document CHEMBL1129379.
